This section presents molecules with their documented AC50 values.
# EXPERIMENT DESCRIPTION: intracellular Trypanosoma cruzi inhibitors in host cells – cell-based, plate reader, cherry-pick samples, set 3, dose response (AID 651818);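 note: compounds incubated with infected cells for about four days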
# Type: functional
Active and inactive are the calls of the source.

The following molecules have reported results that may help.
1. C[C@@H]1CN([C@H](C)CO)C(=O)c2cccc(NC(=O)NC3CCCCC3)c2O[C@@H]1CN(C)Cc1ccc(C(=O)Nc2ccccc2N)cc1 :: 3.74 µM (active)
2. C[C@@H]1CN([C@@H](C)CO)C(=O)Cc2cc(NC(=O)Nc3ccc(C(F)(F)F)cc3)ccc2O[C@@H]1CN(C)Cc1ccncc1 :: 3.57 µM (active)
3. COc1ccc(S(=O)(=O)Nc2ccc3c(c2)CC(=O)N([C@@H](C)CO)C[C@@H](C)[C@@H](CN(C)Cc2ccc(Cl)c(Cl)c2)O3)cc1 :: 4.36 µM (active)

Here is the next item to consider.
According to the records, this molecule C[C@H]1CN([C@@H](C)CO)C(=O)Cc2cc(NC(=O)Cc3cn(C)c4ccccc34)ccc2O[C@H]1CN(C)Cc1ccc(C(=O)Nc2ccccc2N)cc1 displays AC50 of 2 µM (active)

====

List of IC50 values.
# TARGET SYSTEM: Sentrin-specific protease 8 (Homo sapiens);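 note: luminescence read-out of SENP8 inhibition, dose-response confirmation following an ultra-high-throughput screen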
# Sequence (Q96LD8 whole entry): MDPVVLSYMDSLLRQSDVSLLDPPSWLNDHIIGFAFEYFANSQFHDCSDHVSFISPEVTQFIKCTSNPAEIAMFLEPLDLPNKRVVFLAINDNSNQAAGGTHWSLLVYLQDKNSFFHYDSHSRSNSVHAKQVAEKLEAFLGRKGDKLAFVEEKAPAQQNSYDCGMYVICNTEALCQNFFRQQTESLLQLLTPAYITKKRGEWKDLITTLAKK
# Assay type: functional
The source made the active and inactive calls.

1) Clc1ccc(-c2cc3ccccc3[nH]2)cc1 :: 19.9 µM (active)

IC50 recorded for this compound, C/C(=N/OC(=O)c1ccccc1Br)c1ccc(C)cc1 , is 46.9 µM (active)

According to the records, this compound Cc1cc(-n2c(C)cc(C(=O)COc3ccc(F)c(F)c3)c2C)no1 displays IC50 of 20.4 µM (active)

// IC50 value for Fc1ccc(NC(=S)N2N=CCC2c2ccccc2)cc1 (stereo not given) : 38.3 µM (active)

The compound listed as CC(=O)N(/N=C1\Sc2ccccc2C1=O)c1cccc(C)c1 shows IC50 equal to 11.7 µM (active)

====

# TARGET SYSTEM: Zinc finger protein mex-5 (Caenorhabditis elegans)
# Sequence (Q9XUB2 whole entry): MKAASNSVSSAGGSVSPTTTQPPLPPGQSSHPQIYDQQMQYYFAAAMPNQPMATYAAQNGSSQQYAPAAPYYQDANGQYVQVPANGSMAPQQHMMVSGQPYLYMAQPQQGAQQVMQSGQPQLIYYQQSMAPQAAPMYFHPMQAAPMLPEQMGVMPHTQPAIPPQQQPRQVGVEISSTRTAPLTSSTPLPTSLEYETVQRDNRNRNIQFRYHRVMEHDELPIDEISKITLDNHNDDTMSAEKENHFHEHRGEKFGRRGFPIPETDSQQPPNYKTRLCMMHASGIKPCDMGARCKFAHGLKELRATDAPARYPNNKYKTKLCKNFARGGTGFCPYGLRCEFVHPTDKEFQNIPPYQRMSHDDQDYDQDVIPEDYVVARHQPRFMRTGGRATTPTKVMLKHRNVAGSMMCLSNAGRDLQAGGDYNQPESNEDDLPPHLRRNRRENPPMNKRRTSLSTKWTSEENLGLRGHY
# EXPERIMENT DESCRIPTION: MEX-5/TCR-2 RNA interaction inhibitors, dose response, biochemical, C. elegans, fluorescence polarization (AID 1960)
Active and inactive are the calls of the source.
PARAMETER MEASURED: EC50

1. CN(C)c1ccc2nc3ccc(=[N+](C)C)cc-3sc2c1 [METHYLENE BLUE ANHYDROUS] :: 114 µM (active)
2. COc1ccc(/N=C/c2c(O)c3ccccc3n2C(C)=O)cc1 :: > 300 µM (inconclusive)
3. CCOC(=O)c1ccc(-n2c(C)ccc2C)cc1 :: > 300 µM (not active)
4. S=C(NCc1ccncc1)Nc1ccc(Cl)cc1Cl :: > 300 µM (not active)
5. O=C(NCCOc1ccccc1)C1Nc2ccc(OC(F)(F)F)cc2C2C=CCC12 (stereo not given) :: > 300 µM (not active)
6. CCCc1c(O)nc(SCC(=O)N2CCCCC2)nc1O :: > 300 µM (not active)
7. N#Cc1c(N)n(-c2ccc(C(=O)O)cc2)c2nc3ccccc3nc12 :: > 300 µM (not active)
8. CCOC(=O)c1cc(=O)n2nc(-c3ccc(C)cc3)nc2s1 :: > 300 µM (not active)

Tested system Zinc finger protein mex-5 (Caenorhabditis elegans); EC50 recorded for CCn1c(/C=C/c2ccc([N+](=O)[O-])o2)nc2ccccc2c1=O was > 150 µM (inconclusive)

Response field EC50 (Zinc finger protein mex-5 (Caenorhabditis elegans)) for item O=C(NNC(=O)c1csc(-c2cccnc2)n1)c1ccccc1 : > 300 µM (inconclusive)
